# System: MT4
# assay_notes: Anti-HIV-1 activity against Y181C strain, in MT-4 cells by the MTT method
# Format: functional, cell-based
# recorded_conditions: Homo sapiens
readout_type: IC50 (nM)
Give just the number in nM; leave the unit off.

Give MT4 IC50 for the following molecule: CCOCn1c(Cc2ccccc2)c(C(C)C)c(=O)[nH]c1=O [EMIVIRINE]
100

Identify measured IC50 obtained with MT4 for CCc1c(C)[nH]c(=O)c(I)c1Oc1cc(C)cc(C)c1 .
20

Give IC50; test system MT4; molecule CCc1c(C)[nH]c(=O)c(N(C)C)c1Cc1cc(C)cc(C)c1
100

Fill in: IC50 on MT4, entry CCc1c(C)nc(O)c([N+](=O)[O-])c1Oc1cc(C)cc(C)c1
158

Tell me its IC50 on MT4: O=C1Nc2ccc(Cl)cc2[C@@](C#CC2CC2)(C(F)(F)F)O1 [EFAVIRENZ]
40

# assay system MT4: give IC50 of CCc1c(C)nc(O)c(N(C)C)c1Oc1cc(C)cc(C)c1
158
